compounds and their reported GI50
Tested on: SF-539
Assay: NCI tumour cell line growth inhibition, 48 h
Active and inactive are the calls of the source. Cut-off read from the data, not from the text of the source: active = GI50 up to about 1.1 µM and inactive = higher.

{"compound": "Cc1c(CCOC=O)c(=O)[nH]c2nncn12", "measurement-kind": "GI50", "recorded-result": "> 100 µM (inactive)"}
{"compound": "CCN(CC)CCCOC(=O)/C=C/c1c(C)[nH]c(=O)[nH]c1=O", "measurement-kind": "GI50", "recorded-result": "> 625 µM (inactive)"}
{"compound": "COC1=CC(=O)C2C(C1=O)C(c1ccc(OC)c(OC)c1)[C@H]2C (stereo not given in full)", "measurement-kind": "GI50", "recorded-result": "> 100 µM (inactive)"}

Record summary for `COc1ccc(/C=C/c2onc3c(=O)n(C)nc(-c4ccccc4)c23)cc1` : reported GI50 = 48.9 µM (inactive)

Record summary for `Oc1ccc2ccccc2c1OCc1nnc(CCCCCCCCc2nnc(COc3c(O)ccc4ccccc34)n2Nc2ccccc2)n1Nc1ccccc1` : reported GI50 = 6.85 µM (inactive)

Record summary for C#CC1(OC(C)=O)CCC2C3CC=C4C=C(OC(C)=O)CCC4(C)C3CCC21C (stereo not given) : reported GI50 = 21.3 µM (inactive)

Record summary for `CCCCCCCCCCCC[N+]12CC[N+](CCN)(CC1)CC2` : reported GI50 = 89.7 µM (inactive)

Record summary for CC(C)(C)C(=O)CC1=Nc2ccccc2SC1(O)CC(=O)C(C)(C)C (stereo not given) : reported GI50 = 22.9 µM (inactive)

Record summary for CC(=O)C(=O)NC1/C=C(C)\C=C/C(O)C/C=C(C)\C=C/C(O)CC2OC(=O)C1(C)C(=O)C2C (stereo not given) : reported GI50 = > 100 µM (inactive)

Record summary for CCOC(=O)C(CC/C=C\c1ccccc1)N1CCC[C@H]1C(=O)OC (stereo not given in full) : reported GI50 = > 100 µM (inactive)
